Here the recorded SGCB cell-surface expression functional score (log10) is given for each entry.
B1: library; numbered along this chain (parent)
chain: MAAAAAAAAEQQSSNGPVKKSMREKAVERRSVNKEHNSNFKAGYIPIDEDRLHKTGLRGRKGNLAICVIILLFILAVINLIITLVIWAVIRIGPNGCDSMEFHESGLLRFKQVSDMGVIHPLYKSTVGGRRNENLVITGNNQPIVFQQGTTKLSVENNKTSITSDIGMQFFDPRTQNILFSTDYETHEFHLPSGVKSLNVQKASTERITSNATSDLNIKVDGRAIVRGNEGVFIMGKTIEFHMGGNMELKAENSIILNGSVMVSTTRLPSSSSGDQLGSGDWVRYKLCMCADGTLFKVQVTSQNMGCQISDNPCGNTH

Variants of: B1
Test: SGCB cell-surface expression functional score (HA stain, bin4 vs bin1, normalised to synonymous) (log10 ratio); higher = more cell-surface SGCB (functional)
No unit in the answer, only the number.

Query: SGCB cell-surface expression functional score (log10); subject: C314A 0.07

Which measured SGCB cell-surface expression functional score (log10) value corresponds to I47K ? 0.52

Entry under review: A42Q . Reported SGCB cell-surface expression functional score (log10)? -0.07

Can you look up the measured SGCB cell-surface expression functional score (log10) of G56C for me? -0.17

I have this variant here, Q11I , and I need its recorded SGCB cell-surface expression functional score (log10). -0.5

SGCB cell-surface expression functional score (log10) for M235G ? 0.75

Form field: reported SGCB cell-surface expression functional score (log10) of Y184R -1.19

SGCB cell-surface expression functional score (log10) for P313F ? -0.03

Given the entry V118L , report its measured SGCB cell-surface expression functional score (log10). -0.05

Fill in: SGCB cell-surface expression functional score (log10) of S302A is ___ -0.01

// query SGCB cell-surface expression functional score (log10) value for entry A4T 0.36
